# TEST TARGET: human MGL from HeLa cells (Homo sapiens (Human), UniProt Q99685)
# Sequence (Q99685 whole entry): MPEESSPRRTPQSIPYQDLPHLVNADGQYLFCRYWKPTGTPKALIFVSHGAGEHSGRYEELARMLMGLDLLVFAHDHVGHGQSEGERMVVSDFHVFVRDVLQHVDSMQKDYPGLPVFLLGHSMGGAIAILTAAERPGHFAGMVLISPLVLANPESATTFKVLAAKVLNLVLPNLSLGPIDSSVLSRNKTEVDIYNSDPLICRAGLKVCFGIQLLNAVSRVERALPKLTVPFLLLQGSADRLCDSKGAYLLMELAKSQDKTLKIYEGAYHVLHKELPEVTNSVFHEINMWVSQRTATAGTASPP
# ASSAY TEXT: MGL in vitro activity assay ([glycerol-1,3-3H]-oleoyl glycerol cleavage, activated carbon filter)
# Format: biochemical
# PROTOCOL CONDITIONS: 300 nM [Glycerol-1,3-3H]-oleoyl glycerol, endogenously expressed MGL from HeLa cells, one hour incubation; read-out: MGL IC50
READOUT LABEL: IC50 (nM)

MOLECULE: O=C1CCC2(CC(C(=O)N3CC[C@@]4(c5cccc(OC(F)(F)F)c5)C[C@H]4C3)C2)N1 (relative stereo)
TEST TARGET: human MGL from HeLa cells (Homo sapiens (Human), UniProt Q99685)
IC50 / nM: 5.2

A = Cc1cc(C2CC2)ccc1C12CCN(C(=O)[C@H]3C[C@]4(COC(=O)N4)C3)CC1C2 (mixture of isomers)
B = CC(C)(CO)c1cccc([C@H]2[C@@H]3CN(C(=O)[C@H]4C[C@]5(COC(=O)N5)C4)C[C@@H]32)c1
C = O=C1N[C@]2(CO1)C[C@H](C(=O)N1CCC3(c4ccccc4)C(C1)C3(Cl)Cl)C2 (racemic)
// query Falling order of IC50, please. Please list each label once, in the requested order.
// result C, B, A
(C: 32 nM, B: 19 nM, A: 2.1 nM)

---

# TEST TARGET: human MGL from HeLa cells (Homo sapiens (Human))
# ASSAY TEXT: MGL in vitro activity assay ([glycerol-1,3-3H]-oleoyl glycerol cleavage, activated carbon filter)
# Format: biochemical
# PROTOCOL CONDITIONS: 300 nM [Glycerol-1,3-3H]-oleoyl glycerol, endogenously expressed MGL from HeLa cells, one hour incubation; read-out: MGL IC50
pIC50: −log10 of the molar value.
READOUT LABEL: pIC50

COMPOUND: CC(C)(C)c1cccc(C23CCN(C(=O)[C@H]4C[C@]5(CCC(=O)N5)C4)CC2C3)c1 (mixture of isomers) [Example 61]
TEST TARGET: human MGL from HeLa cells (Homo sapiens (Human))
pIC50: 9.60
--
COMPOUND: C[C@]12CN(C(=O)[C@H]3C[C@]4(COC(=O)N4)C3)C[C@H]1[C@@H]2c1ccc(OC(F)(F)F)cc1 (racemic) [Example 107]
TEST TARGET: human MGL from HeLa cells (Homo sapiens (Human))
pIC50: 7.14
--
COMPOUND: CC(C)(C)c1ccc(C23CC2CN(C(=O)[C@H]2C[C@]4(CCC(=O)N4)C2)C3)cc1 (mixture of isomers) [Example 13]
TEST TARGET: human MGL from HeLa cells (Homo sapiens (Human))
pIC50: 8.04

A = Cc1ccc(C23CC2CN(C(=O)[C@H]2C[C@]4(COC(=O)N4)C2)C3)cc1C(F)(F)F (mixture of isomers) [Example 25]
B = Cc1ccc([C@H]2[C@@H]3CN(C(=O)[C@H]4C[C@]5(COC(=O)N5)C4)C[C@@H]32)cc1C [Example 88]
// query A or B : whose pIC50 is greater? Please respond with the label that marks your chosen entry.
// result A
(A: 8.44, B: 7.54)

a = CC(C)c1ccc([C@H]2[C@@H]3CN(C(=O)[C@H]4C[C@]5(COC(=O)N5)C4)C[C@@H]32)cc1 [Example 90]
b = Cc1ccc(C23CCN(C(=O)[C@H]4C[C@]5(CCC(=O)N5)C4)CC2C3)cc1Cl (mixture of isomers) [Example 68]
c = CC1(c2ccc(C34CCN(C(=O)[C@H]5C[C@]6(CCC(=O)N6)C5)CC3C4)cc2)CC1 (mixture of isomers) [Example 70]
d = O=C1CC[C@]2(C[C@H](C(=O)N3CCC4(c5ccc(OC(F)(F)F)cc5)CC4C3)C2)N1 (mixture of isomers) [Example 55]
// query Please order the records by their reported pIC50, lowest number first. Please list each label once, in the requested order.
// result d, b, a, c
(d: 8.00, b: 8.25, a: 8.55, c: 9.28)
